# Test system: Blumeria graminis f. sp. hordei
# Assay text: Barley powdery mildew (ERYSGH) fungicidal activity
# Format: in vivo
# Setup conditions: 24 h, 1 Day Protectant, read-out: Disease Control ERYSGH 1DP
Quantity: pest or weed control at 100 ppm

COc1ccnc(C(=O)N[C@H]2COC[C@H](Cc3ccccc3)[C@@H](OCCCC(F)(F)F)[C@H](C)OC2=O)c1OCOC(C)=O	80 to 100%
COc1ccnc(C(=O)N[C@H]2COC[C@H](Cc3ccccc3)[C@@H](OCC(C)C)[C@H](C)OC2=O)c1OCOC(=O)C(C)(C)C	80 to 100%
CCCO[C@@H]1[C@@H](Cc2ccccc2)COC[C@H](NC(=O)c2nccc(OC)c2OCOC(C)=O)C(=O)O[C@H]1C	80 to 100%
COc1ccnc(C(=O)N[C@H]2COC[C@H](Cc3ccccc3)[C@@H](OC3CCCC3)[C@H](C)OC2=O)c1OC(C)=O	80 to 100%

## Input Entry COc1ccnc(C(=O)N[C@H]2COC[C@H](Cc3ccccc3)[C@@H](OCC(C)C)[C@H](C)OC2=O)c1OC(C)=O : reported pest or weed control at 100 ppm = ?
## Output 80 to 100%

###

Reported melting point values for the following molecules.

Examples with their reported melting point follow.
C=C(C)CO[C@@H]1[C@@H](Cc2ccccc2)COC[C@H](N(C(=O)OC(C)(C)C)C(=O)OC(C)(C)C)C(=O)O[C@H]1C	109 to 110 °C
CCCCCO[C@@H]1[C@@H](Cc2ccccc2)COC[C@H](N(C(=O)OC(C)(C)C)C(=O)OC(C)(C)C)C(=O)O[C@H]1C	94 to 97 °C
COc1ccnc(C(=O)N[C@H]2COC[C@H](Cc3ccccc3)[C@@H](OCC(C)C)[C@H](C)OC2=O)c1O	126 to 128 °C
C[C@@H]1OC(=O)[C@@H](NC(=O)OC(C)(C)C)COC[C@H](Cc2ccccc2)[C@H]1OC(=O)c1ccccc1	54 to 63 °C
COc1ccnc(C(=O)N[C@H]2COC[C@H](CC3CCCCC3)[C@@H](OCC(C)C)[C@H](C)OC2=O)c1O	89 to 92 °C
CCCO[C@@H]1[C@@H](Cc2ccccc2)COC[C@H](NC(=O)c2nccc(OC)c2O)C(=O)O[C@H]1C	102 to 104 °C

## Input Entry COc1ccnc(C(=O)N[C@H]2COC[C@H](Cc3ccccc3)[C@@H](OC(=O)C(C)C)[C@H](C)OC2=O)c1O : reported melting point = ?
## Output 66 to 70 °C

###

Reported pest or weed control at 100 ppm values for the following compounds.
# System: Puccinia triticina
# Assay text: Wheat brown rust (PUCCRT) fungicidal activity on wheat seedlings
# Assay type: in vivo
# Setup conditions: 72 h, 3 Day Curative, read-out: Disease Control PUCCRT 3 DC

COc1ccnc(C(=O)N[C@H]2COC[C@H](Cc3ccccc3)[C@@H](OCCC(C)OC)[C@H](C)OC2=O)c1O (some centres unmarked) [Compound 45]	80 to 100%
COc1ccnc(C(=O)N[C@H]2COC[C@H](Cc3ccccc3)[C@@H](OCCC(C)C)[C@H](C)OC2=O)c1OCOC(C)=O [Compound 42]	80 to 100%
COc1ccnc(C(=O)N[C@H]2COC[C@H](Cc3ccccc3)[C@@H](OCC(C)C)[C@H](C)OC2=O)c1OCOC(=O)C(C)(C)C [Compound 7]	80 to 100%
COc1ccnc(C(=O)N[C@H]2COC[C@H](Cc3ccccc3)[C@@H](Oc3ccccc3)[C@H](C)OC2=O)c1O [Compound 33]	80 to 100%

## Input Entry COC(=O)/C=C/O[C@@H]1[C@@H](Cc2ccccc2)COC[C@H](NC(=O)c2nccc(OC)c2O)C(=O)O[C@H]1C [Compound 27] : reported pest or weed control at 100 ppm = ?
## Output 0 to 80%

## Input Param item: COc1ccnc(C(=O)N[C@H]2COC[C@H](Cc3ccccc3)[C@@H](OCCC(C)OC)[C@H](C)OC2=O)c1OCOC(C)=O (some centres unmarked) [Compound 46]
## Output 80 to 100%

## Input Param item: COc1ccnc(C(=O)N[C@H]2COC[C@H](Cc3ccccc3)[C@@H](OC3CCCC3)[C@H](C)OC2=O)c1OCOC(C)=O [Compound 106]
## Output 80 to 100%

## Input Param item: COc1ccnc(C(=O)N[C@H]2COC[C@H](CC3CCCCC3)[C@@H](OCC(C)C)[C@H](C)OC2=O)c1O [Compound 4]
## Output 80 to 100%

###

Reported melting point values for the following compounds.

Examples with their reported melting point follow.
C[C@@H]1OC(=O)[C@@H](NC(=O)OC(C)(C)C)COC[C@H](Cc2ccccc2)[C@H]1O	62 to 67 °C
C/C=C/C(C)O[C@@H]1[C@@H](Cc2ccccc2)COC[C@H](N(C(=O)OC(C)(C)C)C(=O)OC(C)(C)C)C(=O)O[C@H]1C (some centres unmarked)	80 to 83 °C
CCCCCO[C@@H]1[C@@H](Cc2ccccc2)COC[C@H](NC(=O)c2nccc(OC)c2O)C(=O)O[C@H]1C	51 to 56 °C
COc1ccnc(C(=O)N[C@H]2COC[C@H](Cc3ccccc3)[C@@H](OC)[C@H](C)OC2=O)c1O	57 to 70 °C
COc1ccnc(C(=O)N[C@H]2COC[C@H](Cc3ccccc3)[C@@H](OCC(C)C)[C@H](C)OC2=O)c1OCOC(=O)C(C)C	54 to 58 °C

## Input Entry C[C@@H]1OC(=O)[C@@H](NC(=O)OC(C)(C)C)COC[C@H](Cc2ccccc2)[C@H]1OC(=O)C1CC1 : reported melting point = ?
## Output 72 to 85 °C

## Input Param item: C[C@@H]1OC(=O)[C@@H](N(C(=O)OC(C)(C)C)C(=O)OC(C)(C)C)COC[C@H](Cc2ccccc2)[C@H]1O
## Output 139 to 141 °C

## Input Param item: CCCO[C@@H]1[C@@H](Cc2ccccc2)COC[C@H](N(C(=O)OC(C)(C)C)C(=O)OC(C)(C)C)C(=O)O[C@H]1C
## Output 98 to 100 °C

###

Reported pest or weed control at 100 ppm values for the following compounds.
# Tested on: Mycosphaerella graminicola; Anamorph: Septoria tritici
# Assay text: Leaf blotch of wheat (SEPTTR) fungicidal activity on wheat seedlings
# Type: in vivo
# Setup conditions: Zymoseptoria tritici, 24 h, 1 Day Protectant, read-out: Disease Control SEPTTR 1 DP

COc1ccnc(C(=O)N[C@H]2COC[C@H](Cc3ccccc3)[C@@H](OCC(F)F)[C@H](C)OC2=O)c1O	80 to 100%

## Input Entry C=C(C)CO[C@@H]1[C@@H](Cc2ccccc2)COC[C@H](NC(=O)c2nccc(OC)c2O)C(=O)O[C@H]1C : reported pest or weed control at 100 ppm = ?
## Output 80 to 100%

## Input Param item: COc1ccnc(C(=O)N[C@H]2COC[C@H](Cc3ccccc3)[C@@H](OCC(C)C)[C@H](C)OC2=O)c1OC(C)=O
## Output 80 to 100%

## Input Param item: COc1ccnc(C(=O)N[C@H]2COC[C@H](Cc3ccccc3)[C@@H](OCCC(C)C)[C@H](C)OC2=O)c1OCOC(C)=O
## Output 80 to 100%

## Input Param item: COC(=O)CCO[C@@H]1[C@@H](Cc2ccccc2)COC[C@H](NC(=O)c2nccc(OC)c2OCOC(C)=O)C(=O)O[C@H]1C
## Output 0 to 80%

## Input Param item: COc1ccnc(C(=O)N[C@H]2COC[C@H](Cc3ccccc3)[C@@H](OC3CCCC3)[C@H](C)OC2=O)c1OC(C)=O
## Output 80 to 100%

## Input Param item: COc1ccnc(C(=O)N[C@H]2COC[C@H](Cc3ccccc3)[C@@H](OCCC(C)C)[C@H](C)OC2=O)c1O
## Output 0 to 80%

###

Reported melting point values for the following molecules.

Examples with their reported melting point follow.
CCCC(C)O[C@@H]1[C@@H](Cc2ccccc2)COC[C@H](NC(=O)c2nccc(OC)c2O)C(=O)O[C@H]1C (stereo partly drawn)	52 to 56 °C
COC(=O)/C=C/O[C@@H]1[C@@H](Cc2ccccc2)COC[C@H](NC(=O)OC(C)(C)C)C(=O)O[C@H]1C	128 to 129 °C

## Input Entry C=CCO[C@@H]1[C@@H](Cc2ccccc2)COC[C@H](N(C(=O)OC(C)(C)C)C(=O)OC(C)(C)C)C(=O)O[C@H]1C : reported melting point = ?
## Output 88 to 90 °C

###

# Test system: Blumeria graminis f. sp. hordei
# Assay text: Barley powdery mildew (ERYSGH) fungicidal activity
# Format: in vivo
# Setup conditions: 24 h, 1 Day Protectant, read-out: Disease Control ERYSGH 1DP
# Procedure: Technical grades of materials were dissolved in acetone, which were then mixed with nine volumes of water containing 110 ppm Triton X-100. The fungicide solutions were applied onto wheat seedlings using an automated booth sprayer to run-off. All sprayed plants were allowed to air dry prior to further handling. […] When disease symptoms were fully expressed on the 1st leaves of untreated plants, infection levels were assessed on a scale of 0 to 100 percent disease severity. […]
Quantity: pest or weed control at 100 ppm

COc1ccnc(C(=O)N[C@H]2COC[C@H](Cc3ccccc3)[C@@H](OC)[C@H](C)OC2=O)c1OCOC(C)=O	0 to 80%
COc1ccnc(C(=O)N[C@H]2COC[C@H](Cc3ccccc3)[C@@H](OCC(C)C)[C@H](C)OC2=O)c1OCOC(C)=O	80 to 100%
COc1ccnc(C(=O)N[C@H]2COC[C@H](Cc3ccccc3)[C@@H](OC3CCCC3)[C@H](C)OC2=O)c1OCOC(C)=O	80 to 100%
COc1ccnc(C(=O)N[C@H]2COC[C@H](Cc3ccccc3)[C@@H](OC(=O)c3ccccc3)[C@H](C)OC2=O)c1OCOC(C)=O	0 to 80%
CCCCCO[C@@H]1[C@@H](Cc2ccccc2)COC[C@H](NC(=O)c2nccc(OC)c2OCOC(C)=O)C(=O)O[C@H]1C	80 to 100%

Next molecule, pest or weed control at 100 ppm to be filled in.
## Input Entry COc1ccnc(C(=O)N[C@H]2COC[C@H](Cc3ccccc3)[C@@H](OCC(C)C)[C@H](C)OC2=O)c1OCOC(=O)C(C)C : reported pest or weed control at 100 ppm = ?
## Output 80 to 100%
